B1: glmS ribozyme (parent)
chain: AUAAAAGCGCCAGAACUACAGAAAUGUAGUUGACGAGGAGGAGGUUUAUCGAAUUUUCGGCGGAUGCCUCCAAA

Variants of: B1
procedureSummary: self-cleavage kobs at 10000 uM GlcN6P; higher = faster cleavage; RNA array
details: with glucosamine-6-phosphate
This sample holds only a part of the variants without activity.
assayReadout: self-cleavage kobs at 10000 uM GlcN6P (s⁻¹)
Report only the number, with the unit s⁻¹ understood.

Please fill in: self-cleavage kobs at 10000 uM GlcN6P reported for C50G U54A U65A = 5.29e-05

Please fill in: self-cleavage kobs at 10000 uM GlcN6P reported for C16G C67A = 0.000956

Please fill in: self-cleavage kobs at 10000 uM GlcN6P reported for A39U U69G = 7.29e-05

Please fill in: self-cleavage kobs at 10000 uM GlcN6P reported for U46C U47A = 0.00365

Please fill in: self-cleavage kobs at 10000 uM GlcN6P reported for A39G U54A = 0.018

Please fill in: self-cleavage kobs at 10000 uM GlcN6P reported for A12G U31A G32U = 4.08e-05

Please fill in: self-cleavage kobs at 10000 uM GlcN6P reported for U45A A52G = 0.00293

Please fill in: self-cleavage kobs at 10000 uM GlcN6P reported for G41U U47A = 0.000706

Please fill in: self-cleavage kobs at 10000 uM GlcN6P reported for U31C C58G = 6.27e-05

Please fill in: self-cleavage kobs at 10000 uM GlcN6P reported for C11A G51U A52G U57A G66C C70A = 5e-05

Please fill in: self-cleavage kobs at 10000 uM GlcN6P reported for U47A A53G U55A G66C = 0.000375

Please fill in: self-cleavage kobs at 10000 uM GlcN6P reported for U31G G44U = 0.000129

Please fill in: self-cleavage kobs at 10000 uM GlcN6P reported for U49G A53G = 0.00116

Please fill in: self-cleavage kobs at 10000 uM GlcN6P reported for G32A = 0.00372

Please fill in: self-cleavage kobs at 10000 uM GlcN6P reported for A15C U30C = 0.000177

Please fill in: self-cleavage kobs at 10000 uM GlcN6P reported for G37A C71A = 0.000391

Please fill in: self-cleavage kobs at 10000 uM GlcN6P reported for C11U G29C = 0.00015

Please fill in: self-cleavage kobs at 10000 uM GlcN6P reported for G29U U55C = 0.00588

Please fill in: self-cleavage kobs at 10000 uM GlcN6P reported for U30C U47A = 0.00016

Please fill in: self-cleavage kobs at 10000 uM GlcN6P reported for A53U A64C = 7.17e-05

Please fill in: self-cleavage kobs at 10000 uM GlcN6P reported for U54C A64U = 6.16e-05

Please fill in: self-cleavage kobs at 10000 uM GlcN6P reported for C34G U47G C68G = 7.34e-05

Please fill in: self-cleavage kobs at 10000 uM GlcN6P reported for G29C U47C = 0.000112

Please fill in: self-cleavage kobs at 10000 uM GlcN6P reported for A14G U54C = 0.105

// provenance: the supplement of paper PMC7125110
